- Target Or System: his-galectin-3 (Homo sapiens, UniProt P17931)
- Construct: purchased Abcam
- Sequence (P17931 whole entry): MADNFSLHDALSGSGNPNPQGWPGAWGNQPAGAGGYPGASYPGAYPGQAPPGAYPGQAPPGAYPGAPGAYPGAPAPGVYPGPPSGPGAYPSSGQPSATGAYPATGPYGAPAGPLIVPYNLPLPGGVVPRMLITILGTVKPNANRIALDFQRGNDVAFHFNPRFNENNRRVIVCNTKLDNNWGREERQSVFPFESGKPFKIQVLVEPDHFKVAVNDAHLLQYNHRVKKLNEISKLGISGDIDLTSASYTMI
- Assay Details: TR-FRET assay (in vitro galectin-3 binding inhibitory activity test)
- Run Parameters: Table 3, found values; compound at 20 μM; 60 nM his-galectin-3, 15 nM biotin-ASF; read-out: % Inhibitory activity (at 20 μM)
// reported inhibition at 20 µM per item
Observation Type: inhibition at 20 µM (%)

Molecule | Result Number
CO[C@@H]1[C@@H](n2cc(-c3cc(F)c(F)c(F)c3)nn2)[C@@H](O)[C@@H](CO)O[C@@]12CCCO2 [Compound A257] | 39.2
COc1ccc2c(c1)CC[C@]1(O2)O[C@H](CO)[C@H](O)[C@H](OCc2cc3c(F)c(F)ccc3oc2=O)[C@H]1O [Compound A08] | 21.8
OC[C@H]1O[C@]2(OCC[C@H]2NCc2cccc(Cl)c2)[C@H](O)[C@@H](n2cc(-c3cc(F)c(F)c(F)c3)nn2)[C@H]1O [Compound A86] | 80.3

* * *

A collection of compounds and their measured inhibition at 20 µM
- Target Or System: his-galectin-3 (Homo sapiens, UniProt P17931)
- Construct: purchased Abcam
- Assay Details: TR-FRET assay (in vitro galectin-3 binding inhibitory activity test)
- Run Parameters: Table 1; compound at 20 μM; 60 nM his-galectin-3, 15 nM biotin-ASF; read-out: % Inhibitory activity (at 20 μM)

Compound | inhibition at 20 µM
O=C(O[C@@H]1[C@@H](n2cc(-c3cc(F)c(F)c(F)c3)nn2)[C@@H](O)[C@@H](CO)O[C@@]12CCCO2)c1ccc(F)cc1 | < 25%
CC(C(=O)N[C@@H]1CCO[C@]12O[C@H](CO)[C@H](O)[C@H](n1cc(-c3cc(F)c(F)c(F)c3)nn1)[C@H]2O)c1ccccc1 (stereo partly drawn) | 50 to 75%
O=C(O[C@@H]1[C@@H](n2cc(-c3cc(F)c(F)c(F)c3)nn2)[C@@H](O)[C@@H](CO)O[C@@]12CCCO2)c1cccc(F)c1F | 25 to 50%
OC[C@H]1O[C@]2(OCC[C@H]2NCc2ccccc2F)[C@H](O)[C@@H](n2cc(-c3cc(F)c(F)c(F)c3)nn2)[C@H]1O | 25 to 50%
O=C(O[C@@H]1[C@@H](n2cc(-c3cc(F)c(F)c(F)c3)nn2)[C@@H](O)[C@@H](CO)O[C@@]12CCCO2)c1cc(F)cc(F)c1 | 25 to 50%
O=C(O[C@@H]1[C@@H](n2cc(-c3cc(F)c(F)c(F)c3)nn2)[C@@H](O)[C@@H](CO)O[C@@]12CCCO2)c1ccccn1 | 50 to 75%
O=C(N[C@@H]1CCO[C@]12O[C@H](CO)[C@H](O)[C@H](n1cc(-c3cc(F)c(F)c(F)c3)nn1)[C@H]2O)c1ccccc1-c1ccccc1 | 25 to 50%
O=C(CO[C@@H]1[C@@H](n2cc(-c3cc(F)c(F)c(F)c3)nn2)[C@@H](O)[C@@H](CO)O[C@@]12CCCO2)Nc1ccc(Cl)nn1 | < 25%
OC[C@H]1O[C@@]2(CCCO2)[C@H](OCc2cccc(C(F)(F)F)c2)[C@@H](n2cc(-c3cc(F)c(F)c(F)c3)nn2)[C@H]1O | < 25%
COc1ccc2c(c1)CC[C@]1(O2)O[C@H](CO)[C@H](O)[C@H](OCc2cc3c(F)c(F)ccc3oc2=O)[C@H]1O | < 25%
OC[C@H]1O[C@@]2(CCCCS2)[C@H](O)[C@@H](n2cc(-c3cc(F)c(F)c(F)c3)nn2)[C@H]1O | < 25%
O=C(O[C@@H]1[C@@H](n2cc(-c3cc(F)c(F)c(F)c3)nn2)[C@@H](O)[C@@H](CO)O[C@@]12CCCCO2)c1cccc(F)c1 | 25 to 50%

* * *

- Target Or System: his-galectin-3 (Homo sapiens)
- Construct: purchased Abcam
- Assay Details: TR-FRET assay (in vitro galectin-3 binding inhibitory activity test)
- Run Parameters: Table 2; compound at 20 μM; 60 nM his-galectin-3, 15 nM biotin-ASF; read-out: % Inhibitory activity (at 20 μM)
inhibition at 20 µM values for the compounds below.

Compound | inhibition at 20 µM
O=C(N[C@@H]1CCO[C@]12O[C@H](CO)[C@H](O)[C@H](n1cc(-c3cc(F)c(F)c(F)c3)nn1)[C@H]2O)c1cccc2occc12 | 50 to 75%
O=C(N[C@@H]1CCO[C@]12O[C@H](CO)[C@H](O)[C@H](n1cc(-c3cc(F)c(F)c(F)c3)nn1)[C@H]2O)c1nsc2ccccc12 | 50 to 75%
O=C(N[C@@H]1CCO[C@]12O[C@H](CO)[C@H](O)[C@H](n1cc(-c3cc(F)c(F)c(F)c3)nn1)[C@H]2O)c1cnc2sccn12 | 50 to 75%
OC[C@H]1O[C@@]2(CCCN(c3cccs3)C2)[C@H](O)[C@@H](n2cc(-c3cc(F)c(F)c(F)c3)nn2)[C@H]1O | < 25%
Cc1sc2ccccc2c1C(=O)N[C@@H]1CCO[C@]12O[C@H](CO)[C@H](O)[C@H](n1cc(-c3cc(F)c(F)c(F)c3)nn1)[C@H]2O | > 75%
O=C(N[C@@H]1CCO[C@]12O[C@H](CO)[C@H](O)[C@H](n1cc(-c3cc(F)c(F)c(F)c3)nn1)[C@H]2O)c1cccc2ncc(Br)cc12 | > 75%
O=C(N[C@@H]1CCO[C@]12O[C@H](CO)[C@H](O)[C@H](n1cc(-c3cc(F)c(F)c(F)c3)nn1)[C@H]2O)C1CCCc2ccccc21 (stereo partly shown) | 50 to 75%
O=C(N[C@@H]1CCO[C@]12O[C@H](CO)[C@H](O)[C@H](n1cc(-c3cc(F)c(F)c(F)c3)nn1)[C@H]2O)c1cc2cccc(Cl)c2s1 | 50 to 75%
OC[C@H]1O[C@@]2(CCCN(c3cccc(Cl)c3)C2)[C@H](O)[C@@H](n2cc(-c3cc(F)c(F)c(F)c3)nn2)[C@H]1O | < 25%
CC1CO[C@@]2(C1)O[C@H](CO)[C@H](O)[C@H](n1cc(-c3cc(F)c(F)c(F)c3)nn1)[C@H]2OCC(=O)O (single isomer, unassigned) | 50 to 75%
OC[C@H]1O[C@]2(OCC[C@H]2/N=C\c2ccc3ccccc3c2O)[C@H](O)[C@@H](n2cc(-c3cc(F)c(F)c(F)c3)nn2)[C@H]1O | 25 to 50%
O=C(N[C@@H]1CCO[C@]12O[C@H](CO)[C@H](O)[C@H](n1cc(-c3cc(F)c(F)c(F)c3)nn1)[C@H]2O)c1sc2ccccc2c1Cl | 50 to 75%
O=C(c1cncs1)N1CCC[C@]2(C1)O[C@H](CO)[C@H](O)[C@H](n1cc(-c3cc(F)c(F)c(F)c3)nn1)[C@H]2O | < 25%
O=C(N[C@@H]1CCO[C@]12O[C@H](CO)[C@H](O)[C@H](n1cc(-c3cc(F)c(F)c(F)c3)nn1)[C@H]2O)c1c[nH]c2cccc(F)c12 | > 75%
O=C(N[C@@H]1CCO[C@]12O[C@H](CO)[C@H](O)[C@H](n1cc(-c3cc(F)c(F)c(F)c3)nn1)[C@H]2O)c1ccc2sccc2c1 | 50 to 75%
O=C(N[C@@H]1CCO[C@]12O[C@H](CO)[C@H](O)[C@H](n1cc(-c3cc(F)c(F)c(F)c3)nn1)[C@H]2O)c1cccc2c(Cl)cccc12 | > 75%
OC[C@H]1O[C@@]2(CCCN(c3ccccc3)C2)[C@H](O)[C@@H](n2cc(-c3cc(F)c(F)c(F)c3)nn2)[C@H]1O | < 25%
O=C(N[C@@H]1CCO[C@]12O[C@H](CO)[C@H](O)[C@H](n1cc(-c3cc(F)c(F)c(F)c3)nn1)[C@H]2OCc1nn[nH]n1)c1ccc(F)c2ccccc12 | > 75%
O=C(N[C@@H]1CCO[C@]12O[C@H](CO)[C@H](O)[C@H](n1cc(-c3cc(F)c(F)c(F)c3)nn1)[C@H]2O)c1csc2ccc(Cl)cc12 | > 75%
O=C(N[C@@H]1CCO[C@]12O[C@H](CO)[C@H](O)[C@H](n1cc(-c3cc(F)c(F)c(F)c3)nn1)[C@H]2O)c1c[nH]c2cccc(Br)c12 | > 75%
O=C(N[C@@H]1CCO[C@]12O[C@H](CO)[C@H](O)[C@H](n1cc(-c3cc(F)c(F)c(F)c3)nn1)[C@H]2O)c1cccc2scnc12 | 50 to 75%
O=C(N[C@@H]1CCO[C@]12O[C@H](CO)[C@H](O)[C@H](n1cc(-c3cc(F)c(F)c(F)c3)nn1)[C@H]2O)c1ccc(Br)c2ccccc12 | > 75%
